# Test system: HOP-92
# experiment-description: NCI tumour cell line growth inhibition, 48 h
Activity calls are given as the source filed them. No stated cut-off is given here; in the data, active = GI50 up to about 1.1 µM and inactive = higher.
// GI50 lookup, one value per entry

Check out these entries, answers already filled in.
Query block: Give a short answer stating reported GI50 for CCN1C(=O)CS/C1=N/NC(=O)C(O)(c1ccccc1)C1C=CC=CC1 (stereo not drawn) .
Result block: > 10 µM (inactive)

Query block: Give a short answer stating reported GI50 for Cc1[nH]c2ccccc2c1-c1cc(-c2cc(-c3c(C)[nH]c4ccccc34)on2)no1 .
Result block: 83.8 µM (inactive)

Continuing:
Query block: Give a short answer stating reported GI50 for CC(=O)Nc1cccc(/N=N/N(C)C)c1 .
Result block: > 100 µM (inactive)

###

// GI50 lookup, one value per entry
# Tested on: M14
# experiment-description: NCI tumour cell line growth inhibition, 48 h
The source made the active and inactive calls. No stated cut-off is given here; in the data, active = GI50 up to about 1.1 µM and inactive = higher.

Check out these entries, answers already filled in.
Query block: Give a short answer stating reported GI50 for CCC12C=C(C(=O)OC)N3c4ccccc4C4CCN(CCC1)C2C43 (stereo not drawn) .
Result block: 33.4 µM (inactive)

Query block: Give a short answer stating reported GI50 for O=C(OCc1c(-c2ccccc2)nn(-c2ccccc2)c1COC(=O)Oc1ccccc1)Oc1ccccc1 .
Result block: > 100 µM (inactive)

Query block: Give a short answer stating reported GI50 for N#Cc1ccc(/C=C(/C(=O)c2ccccc2)c2ccccc2)cc1 .
Result block: 13.3 µM (inactive)

Query block: Give a short answer stating reported GI50 for CN1CCN(CC(=O)Nc2cccc3ccccc23)CC1 .
Result block: > 100 µM (inactive)

Query block: Give a short answer stating reported GI50 for CSc1[nH]cnc1C(N)=S .
Result block: > 100 µM (inactive)

Query block: Give a short answer stating reported GI50 for CC(C)(C)C1CCC2c3c([nH]c4ccccc34)C3C(=O)N(c4cc(Br)cc(Br)c4)C(=O)C3C2C1 (stereo not drawn) .
Result block: 25.4 µM (inactive)

Query block: Give a short answer stating reported GI50 for COc1cc(/C=C(\NC(=O)c2ccccc2)c2nc3cc([N+](=O)[O-])ccc3[nH]2)cc(OC)c1OC .
Result block: > 100 µM (inactive)

Continuing:
Query block: Give a short answer stating reported GI50 for O=C(NN=C1CCCCC1)NN=C1CCCCC1 .
Result block: > 100 µM (inactive)

###

# Tested on: NCI-H522
# experiment-description: NCI tumour cell line growth inhibition, 48 h
Calls of active or inactive are those of the source. Cut-off read from the data, not from the text of the source: active = GI50 up to about 1.1 µM and inactive = higher.
Would you mind answering with one of these outcomes? label 1 = active, label 0 = inactive

Query block: Query: recorded result category for CC(=O)O[C@H]1CC[C@@]2(C)C(=CC[C@H]3C4=CC=C(C(C)=O)[C@@]4(C)CCC32)C1 (stereo partly specified) in this test
Result block: label 0

Continuing:
Query block: Query: recorded result category for COc1nc2ccc(COc3ccc(C(=O)NC(CCC(=O)O)C(=O)O)cc3)cc2nc1OC (stereo unspecified) in this test
Result block: label 0

Query block: Query: recorded result category for C[C@]12CC[C@@H]3c4ccc(OC(=O)c5ccccc5)cc4CC[C@H]3[C@@H]1CC[C@@H]2Oc1c2ccccc2nc2ccccc12 in this test
Result block: label 0

Query block: Query: recorded result category for CN(C)/C=N\c1cccc2cnccc12 in this test
Result block: label 0

###

# System: SK-MEL-2
# experiment-description: NCI tumour cell line growth inhibition, 48 h
Active and inactive are the calls of the source. No stated cut-off is given here; in the data, active = GI50 up to about 1.1 µM and inactive = higher.
observed-property: GI50

Check out these entries, answers already filled in.
Query block: Give a short answer stating reported GI50 for O=C(CSc1ncnc2[nH]cnc12)c1ccccc1 .
Result block: > 43.2 µM (inactive)

Query block: Give a short answer stating reported GI50 for O=C(O)c1cccc(S(=O)(=O)NN2C(=O)CSC2c2c(O)ccc3ccccc23)c1 (centres undefined) .
Result block: 33.5 µM (inactive)

Query block: Give a short answer stating reported GI50 for CCCCOCc1cc(CN2CCN(C)CC2)c(O)c2ncccc12 .
Result block: 25.3 µM (inactive)

Here's the next entry for you.
Query block: Give a short answer stating reported GI50 for Cc1c(C(=O)C/C(=N/NC(=O)CC#N)C(N)=O)[n+]([O-])c2ccccc2[n+]1[O-] .
Result block: > 100 µM (inactive)

###

// GI50 lookup, one value per entry
# Tested on: MDA-MB-435
# experiment-description: NCI tumour cell line growth inhibition, 48 h
Calls of active or inactive are those of the source. Rule as the data show it: active = GI50 up to about 1.1 µM and inactive = higher.

Query block: Give a short answer stating reported GI50 for Nc1ccc2c(c1)C(=O)N1CCC[C@H]1C(=O)N2 .
Result block: > 100 µM (inactive)

Here's the next entry for you.
Query block: Give a short answer stating reported GI50 for N=C(CC/C(N)=N/O)NO .
Result block: > 100 µM (inactive)

###

# Test system: UACC-62
# experiment-description: NCI tumour cell line growth inhibition, 48 h
The source made the active and inactive calls. No stated cut-off is given here; in the data, active = GI50 up to about 1.1 µM and inactive = higher.
observed-property: GI50

Query block: Give a short answer stating reported GI50 for COC(=O)C1(C)NCCc2c1[nH]c1ccccc21 (stereo not drawn) .
Result block: > 100 µM (inactive)

Query block: Give a short answer stating reported GI50 for CC(N)(CC(O)(C(F)(F)Cl)C(F)(F)Cl)C(=O)O (stereo not drawn) .
Result block: > 10 µM (inactive)

Query block: Give a short answer stating reported GI50 for O=P1(c2ccccc2)C2=CCC=CC2C(c2ccccc2)N1Cc1ccccc1 (stereo not drawn) .
Result block: 8.63 µM (inactive)

Query block: Give a short answer stating reported GI50 for CCN1C(=O)CS/C1=N/NC(=O)C(O)(c1ccccc1)C1C=CC=CC1 (stereo not drawn) .
Result block: > 10 µM (inactive)

Continuing:
Query block: Give a short answer stating reported GI50 for COc1cc2c(cc1OCCCCN1C(=O)c3cccc4cccc(c34)C1=O)N=C[C@@H]1CCCN1C2=O .
Result block: 3.47 µM (inactive)

Query block: Give a short answer stating reported GI50 for C[C@]12CCC(=O)C(OC(=O)c3ccc([N+](=O)[O-])cc3)=C1CCC2=O .
Result block: > 100 µM (inactive)

Query block: Give a short answer stating reported GI50 for c1cc(CSP234N5CCN2CCN3CCN4CC5)ccc1CSP123N4CCN1CCN2CCN3CC4 .
Result block: > 100 µM (inactive)

Query block: Give a short answer stating reported GI50 for COC(=O)CCC(NC(=S)N/N=C(\C)c1cnccn1)C(=O)OC (stereo not drawn) .
Result block: 28.6 µM (inactive)

###

# System: SNB-75
# experiment-description: NCI tumour cell line growth inhibition, 48 h
Active and inactive are the calls of the source. Cut-off read from the data, not from the text of the source: active = GI50 up to about 1.1 µM and inactive = higher.
observed-property: GI50

Check out these entries, answers already filled in.
Query block: Fill in: GI50 on SNB-75, entry O=C(Nc1ccccc1C(=O)O)C(=O)C(C(=O)c1ccccc1-c1ccccc1)C1OC(=O)c2ccccc21 (stereo not given)
Result block: 25.1 µM (inactive)

Query block: Fill in: GI50 on SNB-75, entry C(/C=N/c1ccccc1)=C(/Nc1ccccc1)c1ccc2ccccc2c1
Result block: 1.64 µM (inactive)

Query block: Fill in: GI50 on SNB-75, entry C=CC1(C)OC2(CCN(C(=O)OCC)CC2)OC1C (stereo not given)
Result block: > 100 µM (inactive)

Query block: Fill in: GI50 on SNB-75, entry C=CCn1c(-c2ccc(Cl)cc2)cs/c1=N\c1ccccc1OC
Result block: > 33.3 µM (inactive)

Query block: Fill in: GI50 on SNB-75, entry Cc1cc2c(cc1Cl)SC(NNC(=O)c1ccco1)=NS2(=O)=O
Result block: > 10 µM (inactive)

Continuing:
Query block: Fill in: GI50 on SNB-75, entry NNC(=O)CSc1nc2ccc(I)cc2c(=O)n1Cc1ccccc1
Result block: 22.9 µM (inactive)

Query block: Fill in: GI50 on SNB-75, entry c1cc(CSP234N5CCN2CCN3CCN4CC5)ccc1CSP123N4CCN1CCN2CCN3CC4
Result block: > 100 µM (inactive)

Query block: Fill in: GI50 on SNB-75, entry Cc1ccc(S(=O)(=O)N/N=C2\C(=O)C3CC2C(Cl)C3Cl)cc1 (stereo not given)
Result block: 55 µM (inactive)

Query block: Fill in: GI50 on SNB-75, entry COC(=O)c1c(O)ccc2c1c1c(n2C)C(=O)c2ccccc2C1=O
Result block: 2.48 µM (inactive)

Query block: Fill in: GI50 on SNB-75, entry Cc1ncc(CI)c(CI)c1O
Result block: 16.8 µM (inactive)

Query block: Fill in: GI50 on SNB-75, entry O=C(O)C12C3C4(C(=O)O)C1C1(C(=O)O)C2C3(C(=O)O)C41 (stereo not given)
Result block: > 100 µM (inactive)

Query block: Fill in: GI50 on SNB-75, entry COC(=O)C1=C(C(=O)OC)C(C(=O)c2ccc(Br)cc2)N2N=C(c3ccc(Cl)cc3)C=CC12 (stereo not given)
Result block: 35.2 µM (inactive)

Query block: Fill in: GI50 on SNB-75, entry CCOC(=O)c1c(N/C(S)=N/c2ccccc2)sc2c1CCOC2
Result block: 17.5 µM (inactive)

Query block: Fill in: GI50 on SNB-75, entry NC1=Nc2cc(Cl)ccc2Sc2nc3ccccc3n21
Result block: 21.4 µM (inactive)

Query block: Fill in: GI50 on SNB-75, entry CC(=O)N(C)C=C1C(=O)N(C)C(=O)N(C)C1=O
Result block: > 100 µM (inactive)
